Measured values drawn from the RNAGym collection of RNA variant scans (doi:10.1002/anie.201605470) for this set.

B1: Osa-1-4 twister ribozyme (parent)
chain: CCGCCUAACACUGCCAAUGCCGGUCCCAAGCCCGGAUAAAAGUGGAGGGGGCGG

variants of: B1; assay: self-cleavage, relative activity (ratio to wild type); higher = more cleavage; co-transcriptional
For each record, write down the corresponding self-cleavage.
Lab note: jot the number down without any unit.

response.value for C14A C26U (field: self-cleavage) = 0.05

response.value for A7C C33U (field: self-cleavage) = 0.04

response.value for A16U C25A (field: self-cleavage) = 0.11

response.value for C14G U24G (field: self-cleavage) = 0.02

response.value for C14G G48A (field: self-cleavage) = 0.03

response.value for A40C G35A (field: self-cleavage) = 0.08

response.value for A29U C25A (field: self-cleavage) = 0.03

response.value for A7U U43A (field: self-cleavage) = 0.08

response.value for G34U G44U (field: self-cleavage) = 0.5

response.value for A46G C25A (field: self-cleavage) = 0.02

response.value for C32G G19C (field: self-cleavage) = 0.03

response.value for C15A G50U (field: self-cleavage) = 0.23

response.value for C26A G48C (field: self-cleavage) = 0.1

response.value for G13C G49C (field: self-cleavage) = 0.01

response.value for C52A G34C (field: self-cleavage) = 0.21

response.value for A8G G22A (field: self-cleavage) = 0.2

response.value for A7U U12C (field: self-cleavage) = 0.1

response.value for A7C U43A (field: self-cleavage) = 0.06

response.value for A38C C32G (field: self-cleavage) = 0.09

response.value for C27A U24C (field: self-cleavage) = 0.06

response.value for C21U C32U (field: self-cleavage) = 0.13

response.value for A17G G34A (field: self-cleavage) = 0.73

response.value for G35U G48C (field: self-cleavage) = 0.07

response.value for A36U C21G (field: self-cleavage) = 0.1

response.value for A28G A29G (field: self-cleavage) = 0.08

response.value for A41C C21U (field: self-cleavage) = 1.04

response.value for G34U U43G (field: self-cleavage) = 0.07

response.value for C27A C32G (field: self-cleavage) = 0.06

response.value for C26G G35U (field: self-cleavage) = 0.09

response.value for A17G G45A (field: self-cleavage) = 0.43

response.value for A41G G47C (field: self-cleavage) = 0.07

response.value for C21G C25U (field: self-cleavage) = 0.05

response.value for A39G G13U (field: self-cleavage) = 0.03

response.value for G35U U12C (field: self-cleavage) = 0.37

response.value for C27A G42C (field: self-cleavage) = 0.06

response.value for C20U G45C (field: self-cleavage) = 0.06

response.value for A28U U43G (field: self-cleavage) = 0.15

response.value for C20G G53U (field: self-cleavage) = 0.04

response.value for A36G A7C (field: self-cleavage) = 0.05

response.value for A7U C25G (field: self-cleavage) = 0.08

response.value for C27U G13C (field: self-cleavage) = 0.01

response.value for G48A U43G (field: self-cleavage) = 0.06

response.value for A8C G22U (field: self-cleavage) = 0.07

response.value for A16G C52G (field: self-cleavage) = 1

response.value for G30A U18C (field: self-cleavage) = 0.04

response.value for C31A G45A (field: self-cleavage) = 0.02
